Test system: HCT-116 colon
PROTOCOL_NOTES: NCI-60 one-dose screen, 48 h
MEASUREMENT_CONDITIONS: 10 µM unless noted
This is part of a sample that, as a whole, favours compounds with a hit. Of some 83,000 tested, about 20% had one in any assay. Calls of active or inactive are those of the source. How the source made its calls: active means growth percent below 10; inactive means the rest.
Write down the outcome that applies. Available outcomes: active, inactive

Field: example entries. Status: answers known.
- COMPOUND: "CN(C)CCCOc1c(Br)cc(/C=C/C(=O)N(C)CCc2cc(Br)c(OCCCN(C)C)c(Br)c2)cc1Br"
  CATEGORY_LABEL: "inactive"
- COMPOUND: "COc1ccc(CCNC=O)cc1OC"
  CATEGORY_LABEL: "inactive"
- COMPOUND: "COc1ccccc1N1CCN(CC(O)COc2c(Br)c(Br)c(Br)c3c2OC(C)(C)C3)CC1 (stereo not given)"
  CATEGORY_LABEL: "inactive"

*Q* Query: recorded result category for O=c1cc(Cl)[nH]c(=O)[nH]1 in this test
*A* inactive

*Q* Query: recorded result category for CCc1c(C)c2cc3nc(NCc4ccccc4)oc3c(C)c2oc1=O in this test
*A* inactive
